# experimental-details: Cytotoxicity against human LO2 cells assessed as survival rate at 64 microg/ml measured after 24 hrs by CCK-8 assay relative to control
# Type: toxicity, cell-based, L02
# measurement-setup: at 64 µg/mL, read-out: Survival
Non-standard residues stand in square brackets, D forms with d. Residues, ends and D or L forms follow the SMILES beside them. Dab = NCC[C@H](N)C(=O)O
measured-parameter: viability at 24 h, 64 µg/mL

>>> endpoint_result("CC(C)C[C@H](NC(=O)CN)C(=O)N[C@@H](CCCNC(=N)N)C(=O)N[C@@H](CCN)C(=O)N[C@@H](Cc1c[nH]c2ccccc12)C(=O)N[C@@H](CC(C)C)C(=O)N[C@@H](CCCNC(=N)N)C(=O)N[C@@H](CCN)C(=O)N[C@@H](Cc1ccccc1)C(=O)N[C@@H](CCN)C(=O)N[C@@H](CCN)C(=O)N[C@@H](Cc1ccccc1)C(=O)N[C@@H](Cc1c[nH]c2ccccc12)C(=O)O (H-GLR[Dab]WLR[Dab]F[Dab][Dab]FW-OH)")
"> 80%"

Then this molecule:
## Task Please indicate viability at 24 h, 64 µg/mL recorded for CC(C)C[C@H](NC(=O)CN)C(=O)N[C@@H](CCN)C(=O)N[C@@H](CCN)C(=O)N[C@@H](Cc1c[nH]c2ccccc12)C(=O)N[C@@H](CC(C)C)C(=O)N[C@@H](CCN)C(=O)N[C@@H](CCN)C(=O)N[C@@H](Cc1ccccc1)C(=O)N[C@@H](CCN)C(=O)N[C@@H](CCN)C(=O)N[C@@H](Cc1ccccc1)C(=O)N[C@@H](Cc1c[nH]c2ccccc12)C(=O)O (H-GL[Dab][Dab]WL[Dab][Dab]F[Dab][Dab]FW-OH)
## Result > 80%

###

Parameter hemolysis at 1 h, 128 µg/mL: see the listing below.
# experimental-details: Hemolytic activity in human red blood cell assessed as hemolysis at 128 microg/ml measured after 1 hrs by microplate reader assay relative to control
# Format: toxicity, cell-based, Erythrocyte
# measurement-setup: red blood cells, at 128 µg/mL, read-out: Activity

>>> endpoint_result("H-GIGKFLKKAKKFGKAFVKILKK-OH")
"< 10%"

## Task Specify reported hemolysis at 1 h, 128 µg/mL for the substance shown: `H-GLRKWLRKFKKFW-OH`
## Result < 10%

###

# experimental-details: Cytotoxicity against human BEAS-2B cells assessed as inhibition of cell growth measured after 24 hrs by CCK-8 assay
# Assay type: toxicity, cell-based
Non-standard residues stand in square brackets, D forms with d. Residues, ends and D or L forms follow the SMILES beside them. Dab = NCC[C@H](N)C(=O)O
Items are presented alongside their recorded CC50 at 24 h.

>>> endpoint_result("CC(C)C[C@H](NC(=O)CN)C(=O)N[C@@H](CCCNC(=N)N)C(=O)N[C@@H](CCN)C(=O)N[C@@H](Cc1c[nH]c2ccccc12)C(=O)N[C@@H](CC(C)C)C(=O)N[C@@H](CCCNC(=N)N)C(=O)N[C@@H](CCN)C(=O)N[C@@H](Cc1ccccc1)C(=O)N[C@@H](CCN)C(=O)N[C@@H](CCN)C(=O)N[C@@H](Cc1ccccc1)C(=O)N[C@@H](Cc1c[nH]c2ccccc12)C(=O)O (H-GLR[Dab]WLR[Dab]F[Dab][Dab]FW-OH)")
"> 64 µg/mL"

## Task State its CC50 at 24 h for this compound: CC(C)C[C@H](NC(=O)CN)C(=O)N[C@@H](CCN)C(=O)N[C@@H](CCN)C(=O)N[C@@H](Cc1c[nH]c2ccccc12)C(=O)N[C@@H](CC(C)C)C(=O)N[C@@H](CCN)C(=O)N[C@@H](CCN)C(=O)N[C@@H](Cc1ccccc1)C(=O)N[C@@H](CCN)C(=O)N[C@@H](CCN)C(=O)N[C@@H](Cc1ccccc1)C(=O)N[C@@H](Cc1c[nH]c2ccccc12)C(=O)O (H-GL[Dab][Dab]WL[Dab][Dab]F[Dab][Dab]FW-OH)
## Result > 64 µg/mL
